# experiment_summary: Solubility of the compound in 0.1 M phosphate buffer at pH 7.4 after 24 hrs by UV and MS analysis
# Type: physicochemical
Measured solubility at 24 h of individual entries

{"columns": ["structure_string", "op", "solubility at 24 h, µM"],
 "data": [
  ["Cc1onc(C(=O)N2[C@@H]3CC[C@H]2C[C@@H](Nc2cc(=O)n(C)c4cc(F)c(F)cc24)C3)c1C", "=", 6],
  ["Cn1ncc(C(=O)N2[C@@H]3CC[C@H]2C[C@@H](Nc2n[nH]c4ccc(F)cc24)C3)c1Cl", ">", 1000],
  ["Cn1ncc(C(=O)N2CCC(Nc3cc(=O)[nH]c4ccc(F)cc34)CC2)c1Cl", "=", 105],
  ["Cn1ncc(C(=O)N2CCC(Nc3cc(=O)n(C)c4ccccc34)CC2)c1Cl", "=", 78]
]}
